Data provenance is PubChem BioAssay (Tox21).

- assay protocol: qHTS assay for identifying genotoxic compounds that show differential cytotoxicity against isogenic chicken DT40 cell lines with known DNA damage response pathways - Rev3 mutant cell line (AID 743014); note: nearly all actives have a fitted effect of over 55% in size
- reported conditions: chicken DT40 Rev3-/- viability, CellTiter-Glo, 40 h; series mostly up to 68.4 µM
Results filed as inconclusive are left out. Active and inactive are the calls of the source. Calls come from the whole dose curve; as a rule, active = well fitted cell-killing curve with a large enough effect in the repeat runs; inconclusive = weak or mixed curves, or effect the other way; inactive = no such curve, though single readings can be large or run the other way.
Possible outcomes: 1.0 (active), 0.0 (inactive)

compound	category
COC(=O)C1=C(C)NC(C)=C(C(=O)OC(C)(C)CN(C)CCC(c2ccccc2)c2ccccc2)C1c1cccc([N+](=O)[O-])c1 (stereo unspecified)	1.0
CCCCCCCC/C=C\CCCCCCCC(=O)OCCO	1.0
Cc1cc(CCC(=O)OCCOCCOCCOC(=O)CCc2cc(C)c(O)c(C(C)(C)C)c2)cc(C(C)(C)C)c1O	1.0
CCc1ccc(C)cc1	0.0
CCCCCCC(CO)CCCC (stereo unspecified)	0.0
CN1CCCN(C(c2ccccc2)c2ccc(Cl)cc2)CC1 (stereo unspecified)	1.0
Cc1ccc2nc(N)[nH]c(=O)c2c1Sc1ccncc1	1.0
O=C(O)c1cccc(C[C@@H]2COc3ccc(OCc4nc5cc(F)ccc5s4)cc3[C@@H]2O)c1	1.0
O=C(O)CCC(=O)c1ccc(-c2ccccc2)cc1	0.0
CC(C)COC(=O)c1ccc(O)cc1	0.0
CN=C(N)NC(=O)Nc1c(C)cccc1C	0.0
